Every entry's value here was drawn from patent US10280205B2.

Biological target: HLA-A*02:01 (Homo sapiens, UniProt P04439, D140Y/D185E/D98H/E176V/E277Q/G131W/G231S/I119V/I121R/I166T/I218V/L300P/L318F/N151K/N90K/P208A/P217A/Q86G/Q94H/R138H/R169H/T345S)
Experiment: MHC binding assay: UV-ligand exchange with beta2m ELISA (exchange yield)
Details: binding to HLA-A*02:01, β2m ELISA
Description: Candidate peptides for T cell based therapies according to the present invention were further tested for their MHC binding capacity (affinity). The individual peptide-MHC complexes were produced by UV-ligand exchange, where a UV-sensitive peptide is cleaved upon UV-irradiation, and exchanged with the peptide of interest as analyzed. Only peptide candidates that can effectively bind and stabilize the peptide-receptive MHC molecules prevent dissociation of the MHC complexes. […]
QUANTITY_KIND: Peptide exchange (MHC class I binding score, peptide exchange yield)

Below: 7 substances and their reported Peptide exchange (MHC class I binding score, peptide exchange yield).
43 (VLSSLEINI; listed as Homo sapiens) [compound 43] ... “++” (≥20% = ++)
166 (YLNHLEPPV; listed as Homo sapiens) [compound 166] ... “+++” (≥50 = +++)
30 (LILDWVPYI; listed as Homo sapiens) [compound 30] ... “+++” (≥50 = +++)
147 (SLLEAVSFL; listed as Homo sapiens) [compound 147] ... “+++” (≥50 = +++)
562 (YLEELPEKLKL; listed as Homo sapiens) [compound 562] ... “+++” (≥50 = +++)
452 (ILLEHGADPNL; listed as Homo sapiens) [compound 452] ... “+++” (≥50 = +++)
409 (LLDAMNYHL; listed as Homo sapiens) [compound 409] ... “++” (≥20% = ++)

Now let's try a different one.
Lookup: Fill in: Peptide exchange (MHC class I binding score, peptide exchange yield) of 248 (FLFPNQYVDV; listed as Homo sapiens) [compound 248] is ___
Found: “+++” (≥50 = +++)

* * *

target: HLA-A*02:01 (Homo sapiens, UniProt P04439, D140Y/D185E/D98H/E176V/E277Q/G131W/G231S/I119V/I121R/I166T/I218V/L300P/L318F/N151K/N90K/P208A/P217A/Q86G/Q94H/R138H/R169H/T345S); assay: MHC binding assay: UV-ligand exchange with beta2m ELISA (exchange yield); conditions: binding to HLA-A*02:01, β2m ELISA
QUANTITY_KIND: Peptide exchange (MHC class I binding score, peptide exchange yield)

Below: 5 substances and their reported Peptide exchange (MHC class I binding score, peptide exchange yield).
525 (VLLEAGEGLVTI; listed as Homo sapiens) [compound 525] ... “+++” (≥50 = +++)
33 (VLLSLLEKV; listed as Homo sapiens) [compound 33] ... “++” (≥20% = ++)
249 (LLDGFLVNV; listed as Homo sapiens) [compound 249] ... “+++” (≥50 = +++)
467 (FLAKDFNFL; listed as Homo sapiens) [compound 467] ... “+++” (≥50 = +++)
334 (TLTKVLVAL; listed as Homo sapiens) [compound 334] ... “+++” (≥50 = +++)

Lookup: Fill in: Peptide exchange (MHC class I binding score, peptide exchange yield) of 180 (FQIDPHSGLVTV; listed as Homo sapiens) [compound 180] is ___
Found: “++” (≥20% = ++)

Lookup: Fill in: Peptide exchange (MHC class I binding score, peptide exchange yield) of 412 (YLDDLNEGVYI; listed as Homo sapiens) [compound 412] is ___
Found: “++” (≥20% = ++)

Lookup: Fill in: Peptide exchange (MHC class I binding score, peptide exchange yield) of 566 (VIADGGIQNV; listed as Homo sapiens) [compound 566] is ___
Found: “++” (≥20% = ++)
